# ASSAYED_TARGET: OsWRKY34 (Oryza sativa, UniProt Q0JBA9 1-250)
# Sequence (Q0JBA9 entry or part of it): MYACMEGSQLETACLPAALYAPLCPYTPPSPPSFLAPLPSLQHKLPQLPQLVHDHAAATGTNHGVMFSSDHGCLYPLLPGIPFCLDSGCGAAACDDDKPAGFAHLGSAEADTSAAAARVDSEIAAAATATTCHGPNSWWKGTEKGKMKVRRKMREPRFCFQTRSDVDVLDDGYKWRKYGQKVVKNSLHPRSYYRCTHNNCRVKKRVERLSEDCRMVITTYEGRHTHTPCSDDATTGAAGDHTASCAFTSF
# ASSAY_SUMMARY: protein-binding microarray (RPBM); PBS, 2% BSA, 51.3 ng/ul salmon testes DNA, 50 uM zinc acetate, 200 nM TF, 25 C, 1 h; high values mean tight binding
# EXPERIMENTAL_CONDITIONS: protein: recombinant; tags: N-terminal polyhistidine and DsRed monomer fusion (pET32a); label: CyDye5-dUTP incorporated in the synthesized complementary strand; 3' TTTTT single-stranded linker to array surface; dsDNA, one strand shown
Over roughly 68,000 sequences, “fluorescence intensity (a.u.)” has its median near 9,100; the highest 2% begin near 16,000. This is one part of a sample in which the highest values are shown more often than they occur.
Each entry below lists one item and its recorded binding signal value.
MEASUREMENT_TYPE: binding signal

[[record]]
chain = "ATCGTTTGGGGTCATTTTCTGCGGTTTGGTGGTGTTGTGCCGGAGTCACCTAGTGCAG"
assayed_target = "OsWRKY34 (Oryza sativa, UniProt Q0JBA9 1-250)"
measured = "11100 fluorescence intensity (a.u.)"

[[record]]
chain = "TTCATATCTGCTTTTTCCTATATATGTGTGTGTGACTGCACGGAGTCACCTAGTGCAG"
assayed_target = "OsWRKY34 (Oryza sativa, UniProt Q0JBA9 1-250)"
measured = "9710 fluorescence intensity (a.u.)"

[[record]]
chain = "ACACACACTTTACAGGTTTACAGCCCAACTTATCCGTGCACGGAGTCACCTAGTGCAG"
assayed_target = "OsWRKY34 (Oryza sativa, UniProt Q0JBA9 1-250)"
measured = "9890 fluorescence intensity (a.u.)"

[[record]]
chain = "GTTGGGGAGAAGGGGTGGTAAAATTTCTGGTATTATGGTTCGGAGTCACCTAGTGCAG"
assayed_target = "OsWRKY34 (Oryza sativa, UniProt Q0JBA9 1-250)"
measured = "11700 fluorescence intensity (a.u.)"

[[record]]
chain = "TTCTTTTGTTGTGTGGGTGTATGTTTTGGTTATGTGCATTCGGAGTCACCTAGTGCAG"
assayed_target = "OsWRKY34 (Oryza sativa, UniProt Q0JBA9 1-250)"
measured = "8810 fluorescence intensity (a.u.)"

[[record]]
chain = "TCAATCAACGGCTACTTGTATGTAATCTCCACGCATTCCACGGAGTCACCTAGTGCAG"
assayed_target = "OsWRKY34 (Oryza sativa, UniProt Q0JBA9 1-250)"
measured = "8630 fluorescence intensity (a.u.)"

[[record]]
chain = "CTGTATTTGACTGTTACTGCTTTTGGATTTTGTTTCATTTCGGAGTCACCTAGTGCAG"
assayed_target = "OsWRKY34 (Oryza sativa, UniProt Q0JBA9 1-250)"
measured = "10800 fluorescence intensity (a.u.)"

[[record]]
chain = "GTGGATTTTTTTTTTCTTTTCTTTTTTCGTTGTTATTTGTCGGAGTCACCTAGTGCAG"
assayed_target = "OsWRKY34 (Oryza sativa, UniProt Q0JBA9 1-250)"
measured = "10600 fluorescence intensity (a.u.)"

[[record]]
chain = "TAGTTTTCTCAGGTGTTTGGGAATTGGTTGGTGAAGATGACGGAGTCACCTAGTGCAG"
assayed_target = "OsWRKY34 (Oryza sativa, UniProt Q0JBA9 1-250)"
measured = "9450 fluorescence intensity (a.u.)"

[[record]]
chain = "TTTTTCGTTTCCTTTCCGTGTTCTTTTTTTTTTCTTCCATCGGAGTCACCTAGTGCAG"
assayed_target = "OsWRKY34 (Oryza sativa, UniProt Q0JBA9 1-250)"
measured = "10100 fluorescence intensity (a.u.)"

[[record]]
chain = "GCCGTTTCTTCTTTCTTTTTTTTTTCCGTGTGTGTCGTTTCGGAGTCACCTAGTGCAG"
assayed_target = "OsWRKY34 (Oryza sativa, UniProt Q0JBA9 1-250)"
measured = "16600 fluorescence intensity (a.u.)"

[[record]]
chain = "ACATCTTATTTCCCTGGGTGGGGAGATTCTAGTTAAAATTCGGAGTCACCTAGTGCAG"
assayed_target = "OsWRKY34 (Oryza sativa, UniProt Q0JBA9 1-250)"
measured = "19000 fluorescence intensity (a.u.)"

[[record]]
chain = "TACATGTTTGACTTTGACTTGGTTTTTGGATATTTCATTTCGGAGTCACCTAGTGCAG"
assayed_target = "OsWRKY34 (Oryza sativa, UniProt Q0JBA9 1-250)"
measured = "9170 fluorescence intensity (a.u.)"

[[record]]
chain = "AGTGGTGATCGCCGCGGTTGGGTTTCTTGGATTGGGCTGTCGGAGTCACCTAGTGCAG"
assayed_target = "OsWRKY34 (Oryza sativa, UniProt Q0JBA9 1-250)"
measured = "8720 fluorescence intensity (a.u.)"

[[record]]
chain = "GGTTCTGTTCTATATACTCCGACACCATACTGATTAGTCTCGGAGTCACCTAGTGCAG"
assayed_target = "OsWRKY34 (Oryza sativa, UniProt Q0JBA9 1-250)"
measured = "10900 fluorescence intensity (a.u.)"

[[record]]
chain = "GTGGGGTTTTCGATGGTGTTTCATTCTTTTTCTCAATGTACGGAGTCACCTAGTGCAG"
assayed_target = "OsWRKY34 (Oryza sativa, UniProt Q0JBA9 1-250)"
measured = "20300 fluorescence intensity (a.u.)"

[[record]]
chain = "TTTTTCCGTGTGTGTCGTTTCGTTCTTGTTTGTTCGGGTCCGGAGTCACCTAGTGCAG"
assayed_target = "OsWRKY34 (Oryza sativa, UniProt Q0JBA9 1-250)"
measured = "12400 fluorescence intensity (a.u.)"

[[record]]
chain = "CCATCCACGCGACGCGGCACAACCTCCCGCGCCCAACACACGGAGTCACCTAGTGCAG"
assayed_target = "OsWRKY34 (Oryza sativa, UniProt Q0JBA9 1-250)"
measured = "8760 fluorescence intensity (a.u.)"

[[record]]
chain = "GAGGGCAAGGGCGGCGGGTCTAACACAACACAATAAGAGTCGGAGTCACCTAGTGCAG"
assayed_target = "OsWRKY34 (Oryza sativa, UniProt Q0JBA9 1-250)"
measured = "9470 fluorescence intensity (a.u.)"

